assay-notes: Mouse plasma pharmacokinetics
Format: in vivo
conditions: male, C57BL/6, mouse, plasma, intraperitoneal; across the dose levels 160, 120, 80 and 10 mg/kg; read-out: elimination half-life
measurement-label: half-life

If you can, please state the reported half-life value of CN1Cc2cc(-c3ccc(-c4cncc(NS(=O)(=O)c5ccccc5[N+](=O)[O-])c4)s3)ccc2C1=O [Compound 1] .
2.4 to 3.4 h

====

assay-notes: Plasma protein binding by equilibrium dialysis
Type: in vitro ADME, mouse
conditions: CD1, mouse, pH 7.4; without saturation of plasma protein binding (99.8% protein-bound); read-out: free fraction in plasma
measurement-label: fraction unbound at 6 h
Give a plain numeric answer without units written out.

Any idea what its fraction unbound at 6 h is? The compound is CN1Cc2cc(-c3ccc(-c4cncc(NS(=O)(=O)c5ccccc5[N+](=O)[O-])c4)s3)ccc2C1=O [Compound 1]
0.002

====

assay-notes: Mouse plasma pharmacokinetics
Format: in vivo
conditions: male, mouse, ip; 120 mg/kg single i.p. dose, C57BL/6 mice, plasma
measurement-label: Cmax (µM)
API: value field is a number in µM; no unit string.

For the molecule CN1Cc2cc(-c3ccc(-c4cncc(NS(=O)(=O)c5ccccc5[N+](=O)[O-])c4)s3)ccc2C1=O , what Cmax is on record?
1030

====

assay-notes: Mouse plasma pharmacokinetics
Assay type: in vivo
conditions: male, mouse, ip; 160 mg/kg single i.p. dose, C57BL/6 mice, plasma; read-out: T1/2 (converted)
measurement-label: half-life (h)
Just the number please, in h, no unit attached.

// lookup half-life for CN1Cc2cc(-c3ccc(-c4cncc(NS(=O)(=O)c5ccccc5[N+](=O)[O-])c4)s3)ccc2C1=O
3.36

====

assay-notes: Plasma protein binding by equilibrium dialysis
Assay type: in vitro ADME, mouse
conditions: CD1, pooled mouse plasma, pH 7.4; concentration 500 μM, mouse plasma
Procedure: The plasma protein binding of the compounds was determined by equilibrium dialysis (12–14 kDa cutoff membrane). […] The dialysis unit was covered with an adhesive sealing film to prevent evaporation of the contents and placed in an incubator (Innova-42, New Brunswick Scientific) maintained at 37 °C with gentle mixing (80 rpm) for 6 h. […] The supernatant was diluted with 0.01% formic acid in ultrapure water (Milli-Q) (1:1) and quantitated by liquid chromatography–tandem mass spectrometry (LC-MS/MS). […]
measurement-label: fraction unbound at 6 h, 500 μM
Kindly provide the number alone.

Entry under review: CN1Cc2cc(-c3ccc(-c4cncc(NS(=O)(=O)c5ccccc5[N+](=O)[O-])c4)s3)ccc2C1=O [Compound 1] . Reported fraction unbound at 6 h, 500 μM?
0.0019

====

assay-notes: Mouse plasma pharmacokinetics
Assay type: in vivo
conditions: male, mouse, ip; 160 mg/kg single i.p. dose, C57BL/6 mice, plasma; read-out: AUC0–24
Description: Male C57BL/6 mice (18–25 g) were supplied and housed under controlled temperature and humidity at the Vernon Jansen Unit of the University of Auckland. The mice had access to a pelleted diet and water ad libitum. […] Compound concentration in biological matrices was measured by LC-MS/MS using a 6410b triple-quadrupole mass spectrometer (Agilent, Santa Clara) equipped with a multimode ionization source. […]
measurement-label: AUC(0-t)

Consider the compound CN1Cc2cc(-c3ccc(-c4cncc(NS(=O)(=O)c5ccccc5[N+](=O)[O-])c4)s3)ccc2C1=O and give its measured AUC(0-t).
8940 µM·h
